Below, each entry is listed alongside its reported growth inhibition.
Assay: NCI Yeast Anticancer Drug Screen. Data for the mlh1 rad18 strain (AID 175)
Details: S. cerevisiae mlh1 rad18 strain growth inhibition; at 50.0 µM; stronger effect = higher value
This is part of a sample that, as a whole, favours compounds with a hit. Of some 79,000 tested, about 15% had one in any assay.
assay-endpoint: growth inhibition (%)

[[record]]
structure_smiles_string = "Brc1ccc(NP(Br)(c2ccccc2)(c2ccccc2)c2ccccc2)cc1"
assay_endpoint = "growth inhibition"
unit_name = "%"
quantitative_readout = 20.1

[[record]]
structure_smiles_string = "[CH3][Sn]([CH3])([CH3])[O]C(=O)CNC(=O)c1ccccc1"
assay_endpoint = "growth inhibition"
unit_name = "%"
quantitative_readout = -0.3

[[record]]
structure_smiles_string = "CN(C)[PH+](N(C)C)N(C)C.CN(C)[PH+](N(C)C)N(C)C.[C-]#[O+].[C-]#[O+].[C-]#[O+].[C-]#[O+].[C-]#[O+].[C-]#[O+].[Co].[Co].[Hg]"
assay_endpoint = "growth inhibition"
unit_name = "%"
quantitative_readout = 98.8

[[record]]
structure_smiles_string = "NCCN.NCCN.O=C([O-])CCl.O=C([O-])CCl.[Co+3].[O-][Cl+3]([O-])([O-])[O-]"
assay_endpoint = "growth inhibition"
unit_name = "%"
quantitative_readout = -9

